Target: T1, human GPC3-His protein (human, UniProt P51654 25-559)
T1 construct: Bought protein; also called human GPC3 protein; not shown: His tag
Assay: ELISA, coated human GPC3, antibody 0.001 nM
Measurement name: OD450 nm (OD450)
Give bare numbers, in OD450.

Some solved cases for reference:
>  <Binder>
F1.115.8 human-murine chimeric antibody (antibody, human IgG1, kappa, V domains shown) VH: EVQLQQSGPELVKPGASVKMSCKASGYTFTEYYMHWVKQSHGKSLEWIGYIYPNNGGNGYNQKFKGKATLTVDKSSSTAYMGLRSLTSEDSAVYYCVRGYYSNWYFDVWGTGTTVTVSS VL: DVLMTQTPLSLPVSLGDQASISCRSSQSIVHSNGKTYLEWYLQKPGQSPKLLIYKVSNRFSGVPDRFSGSGSGTDFTLKISRVEAEDLGVYYCFQGSHVPFTFGSGTKLEIKR

>  <OD450 nm (OD450)>
0.11

$$$$
>  <Binder>
F1.73.9 human-murine chimeric antibody (antibody, human IgG1, kappa, V domains shown) VH: QVQLKQSGAELVRPGASVKLSCKASGYTFTDYYINWVKQRPGQGLEWIARIYPGSGNTYYNEKFKGKATLTAEKSSSTAYMQFSSLTSEDSAVYFCACSTYYTMDYWGQGTSVTVSS VL: QIVLTQSPAIMSASLGERVTMTCTASSGVSSSYLHWYQQKPGSSPKLWIYTTSNLASGVPARFSGSGSGTSYSLTISSMEAEDAATYYCHQYHRSPYTFGGGTKLEIKR

>  <OD450 nm (OD450)>
0.11

$$$$
>  <Binder>
F1.42.8 human-murine chimeric antibody (antibody, human IgG1, kappa, V domains shown) VH: HVQLQQPGAELVKPGASVKLSCKASGYTFTSYWMHWVRQRPGQGLEWIEMIHPNSGSTNYNEKFKSKATLTVDKSSSTAYMQLSSLTSEDSAVYYCARGNYNSSLYAMDYWGQGTSVTVSS VL: DIQMTQTTSSLSASLGDRVTISCSASQGISNYLNWYQQKPDGTVKLLIYYASNLHSGVPSRFSGSGSGTAYSLTISNLEPEDIATYYCQQYSILPYTFGGGTKLEIKR

>  <OD450 nm (OD450)>
0.13

$$$$
>  <Binder>
F2.55.11 human-murine chimeric antibody (antibody, human IgG1, kappa, V domains shown) VH: EVKLVESGGGLVKPGGSLKLSCAASGLTFSTCTMSWVRQTPAKRLEWVATISSGGGNTYYPDSVKGRFTISRDNARNTLYLQMSSLRSEDTAMYYCVRLYYDGSPYAMDYWGQGTSVTVSS VL: DIQMTQTTSSLSASLGDRVTISCRASQDISNHLNWYQQKPDGTVKLLIYYTSRLHSGVPSRFSGSGSGTDYSLTISNLEQEDIATYFCQQDSKPPPTFGSGTKLEIKR

>  <OD450 nm (OD450)>
0.15

$$$$
>  <Binder>
F1.9.19 human-murine chimeric antibody (antibody, human IgG1, kappa, V domains shown) VH: DVQLQESGPGLVKPSQSLSLTCSVTGYSITSGYYWNWIRQFPGNRLEWMAYISYDGINNYNPSLKNRISIARDTSTNQFFLKLNSVTSEDTATYYCATTTEVALFDHWGQGTTLTVSS VL: DVLLTQTPLSLPVSLGDQASISCRSSQNIVHGNGNTYLEWFLQKPGQSPKLLIYKVSNRFSGVPDRFSGSGSGTDFTLKISRVEAEDLGLYYCFQASHVPWTFGGGTKLEIKR

>  <OD450 nm (OD450)>
0.11

$$$$

Provide the reported OD450 nm of each entry below, same order.
1. F2.92.1 human-murine chimeric antibody (antibody, human IgG1, kappa, V domains shown) VH: QVQLQQSGAELVRPGASVKLSCKASGYIFSDYEIHWVKQTPVHGLECIGAVDPETGGTAYNQKFKGKATLTADKSSSTAYMELRSLTSEDSAVYFCTRFYSFAYWGQGTLVTVST VL: DVVMTQTPLSLPVSLGDQGSISCRSSQSLVHSNGNTYLQWYLQKPGQSPKLLIYKVSNRFSGVPDRFSGSGSGTDFTLKISRVEAEDLGVYFCCQSTHVLPTFGGGTKLEIKR
2. F3.54.12 human-murine chimeric antibody (antibody, human IgG1, kappa, V domains shown) VH: QVQLQQSGAELVRPGASVKLSCKASGYTFTDYEMHWVKQTPVHGLEWIGAIDPETGNTAYIQKFKGKATLTTDKSSSTAYMELRSLTSEDSAVYYCTRFYSYSHWGQGTTLTVSS VL: DVVMTQTPLSLPVSLGDQASISCRSSQSLVHSNGNTYLHWYLQKPGQSPKLLIYKVSNRFSGVPDRFSGSSSGTDFTLKISRVEAEDLGVYFCSQNTHVPPTFGGGTKLEIKR
3. F1.118.4 human-murine chimeric antibody (antibody, human IgG1, kappa, V domains shown) VH: QVQLQQSGAELAKPGASVKLSCKASGYSFTSYWIHWVKQRPGQGLEWIGYINPSSGYTKYNQKFKDKATLTADKSSSTAYMQLSSLTYEDSAVYYCARFGSSSFYFDYWGQGTTLTVSS VL: DIVLTQSPASLAVSLGQRATISCRASQSVSSSSYSYMHWYQQKPGQPPKLLIKYASNLDSGVPARFSGSGSGTDFTLNIHPVEEEDTATYYCQHSWEIPAFGGGTKLEIKR
4. F1.41.17 human-murine chimeric antibody (antibody, human IgG1, kappa, V domains shown) VH: EVQLVESGGDSVKPGGSLKLSCAASGFTFSSYGMSWVRQTPDKRLEWVATINSGGSYTYYQDSVKGRFTISRDNAKNTLYLQMSSLKSEDTAIYYCVRHHYGSSYDYFDYWGQGTTLTVSS VL: DIVMTQAAPSVPVMPGESVSISCRSSKSLLHSNGNTHLYWFLQRPGQSPQLLIYRMSNLASGVPDRFSGSGSGTAFTLRISRVEAEDVGVYYCMQHLEYPLTFGAGTKLELKR
5. F4.26.1 human-murine chimeric antibody (antibody, human IgG1, kappa, V domains shown) VH: QVQLKQSGPGLVQPSQSLSITCTVSGFSLTSYGVHWVRQSPGKGLEWLGVIWSSGNTDYNAVLISRLSIKKDDSKSQVFFKMNSPQVDDSAIYYCGRNGGWLLRGFMDFWGQGTSVTVSS VL: DVVMTQTPLSLPVSLGDQASISCRSSQSLLHSNGNTYLHWYLQRSGQSPNLLIYKVSNRFSGVPDRFSGGGSGTDFTLKISRVEAEDLGIYFCSQSTHVPWTFGGGTKLEIKR

Reply:
1: 0.12; 2: 0.15; 3: 0.12; 4: 0.11; 5: 0.11
